assay: NCI Yeast Anticancer Drug Screen. Data for the mlh1 rad18 strain (AID 175); details: S. cerevisiae mlh1 rad18 strain growth inhibition; at 50.0 µM; stronger effect = higher value
About 79,000 compounds went through this panel and 15% of them were active in at least one assay; those are over-represented in the sample as a whole. Activity calls are given as the source filed them. Cut-off read from the data, not from the text of the source: active = growth inhibition above about 70%; inactive = the rest.
// reported growth inhibition for each item listed

Illustrative cases are given below, each with its answer.
CCCC(=O)Nc1cc(C(=O)N2C[C@@H]3C[C@]34C2=CC(=O)c2[nH]cc(C)c24)n(COC)c1 = 47.4% (inactive)
CCCCCCCCCCCC(=O)OCC1OC(n2cc(F)c(=O)[nH]c2=O)C(N)C(OC(=O)CCCCCCCCCCC)C1O (stereo not given) = -45.5% (inactive)
CCN(CC)c1ccc(N=C2C=C(C(=O)Nc3ccc(C(=O)O)cc3)C(=O)c3ccccc32)c(C)c1 = -18.2% (inactive)
Nc1ncc2ncn(C3CCC(CO)O3)c2n1 (stereo not given) = -6.45% (inactive)

Looking up `CC1(C)CS(=O)(=O)C(=O)N1CCC(=O)O` , I see its growth inhibition listed as 24.9% (inactive)

So for `NNC(=S)N/N=C(\CCCC(=O)NCCc1ccccc1)CC(=O)c1ccccc1` , the logged growth inhibition turned out to be 8.8% (inactive)

growth inhibition in this record for `Cc1ccccc1C(=O)N(C(C)C)C(C)C` : 1% (inactive)

====

experiment: NCI Yeast Anticancer Drug Screen. Data for the rad50 strain (AID 155);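 note: 0% = growth of vehicle-only cultures of the same strain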; conditions: S. cerevisiae rad50 strain growth inhibition; at 50.0 µM; stronger effect = higher value
About 79,000 compounds went through this panel and 15% of them were active in at least one assay; those are over-represented in the sample as a whole.
// growth inhibition lookup, one value per entry
A number alone suffices; assume %.

A selection of reference data follows.
Cc1nn(C(=O)c2cccnc2)c(-c2ccccc2)c1N=Nc1ccc(C(=O)O)cc1 = -16.5
Nc1nnc2nc(CC(=O)c3ccccc3[N+](=O)[O-])c(CC(=O)c3ccccc3[N+](=O)[O-])nn12 = 1
C=C(C)CS(=O)(=O)Cc1ccccc1 = 14.6
CC(C)C(NC(=O)C(=O)c1c[nH]c2ccc(Cl)cc12)C(=O)O (configuration not stated) = -28.9
O=C1c2ccccc2CCC12OC2c1ccccn1 (configuration not stated) = 67.8
c1ccc(C2CCCN2)cc1 (configuration not stated) = 6

Now let's try a different one.
Short answer for `CCCC(=O)Oc1ccc(C)cc1C(C)(C)C` : growth inhibition was 6.65

====

assay: NCI Yeast Anticancer Drug Screen. Data for the mec2-1 strain (AID 157); details: S. cerevisiae mec2-1 strain, at 50.0 µM, stronger effect = higher value
This is part of a sample that, as a whole, favours compounds with a hit. Of some 79,000 tested, about 15% had one in any assay.
growth inhibition listing for selected compounds.
# number only, unit % dropped from output

Completed entries (count: 6):
N#CC(c1ccccc1)N(C(N)=O)c1ccccc1 (stereo unspecified) = 8.5
CC(C)(CCCCC(C)(C)NC1=NCCO1)NC1=NCCO1 = -8.8
CN=Cc1c(O)ccc2ccccc12.[Cu+2] = 7.6
COC(C)CCOC(=O)COc1ccccc1 (stereo unspecified) = -10
COC(=O)C(=O)C(C(=O)C(=O)Nc1cccc([N+](=O)[O-])c1)c1nc2ccc(Cl)cc2[nH]c1=O (stereo unspecified) = -22.2
COc1ccc(-c2ccccc2)cc1NC(C)=O = 15.2

Alright, here's another compound for you.
For this compound ( `CCCC(C)(C)CO` ), measured growth inhibition is 1.35

====

test: NCI Yeast Anticancer Drug Screen. Data for the mec2-1 strain (AID 157); conditions: S. cerevisiae mec2-1 strain, at 50.0 µM, stronger effect = higher value
The panel holds about 79,000 compounds, 15% with a hit somewhere; the sample as a whole holds those more often.
Reported growth inhibition values for a set of compounds
All answers are understood in %, so give the number only.

In the examples that follow, each entry is paired with its recorded growth inhibition.
CCN(Cc1ccc(CN(CC)C(=O)c2c(-c3ccccc3)noc2C)cc1)C(=O)c1c(-c2ccccc2)noc1C = -8.1
COC(=O)CCCCCCCCC(=O)OC = 33.8
CN1CCCC(CO)C1 (stereo unspecified) = -10.2
CNC(=S)/C(C(C)=O)=C(\C)Nc1ccccc1 = -5.55
CC(C)CCc1c(N)nc(N)[nH]c1=O = -13.6

The measured growth inhibition associated with CCCCC1C/C=C/C=C/C=C/C=C/C(OC2OC(C)C(O)C(N)C2O)CC2OC(O)(CC(O)CC3OC3/C=C/C(=O)O1)CC(O)C2C(=O)O (stereo unspecified) reads 9.5

For this compound ( `CC1(C)CC[C@]2(C(=O)O)CC[C@]3(C)C(=CC[C@@H]4[C@@]5(C)CC[C@@H]6OC(C)(C)OC[C@@]6(C)[C@@H]5CC[C@]43C)[C@H]2C1` ), measured growth inhibition is 10.8

Quick note, growth inhibition for C=CC1=C(C)C2=NC1=CC1=NC(=CC3=C(C)C4=C(O)C(C(=O)OC)C(=C5NC(=C2)C(C)C5CCC(=O)OC)C4=N3)C(CC)=C1C (stereo unspecified) landed at 11.3

// growth inhibition lookup, compound = CC1C(O)CC23COC(=O)C2=CCCC3C1(C)CCC1=CC(=O)OC1 (stereo unspecified) , result: -38.9

# growth inhibition (compound: `N#C/C(=C\c1ccc(F)cc1)C(=O)O` ) is 0.8

Reported growth inhibition of `Cc1cccc(C(=O)O)c1-c1c(C)cccc1C(=O)O` : -5.95

Looking up COC(=O)C1CCCN1C(=O)C(C)=O (stereo unspecified) , I see its growth inhibition listed as 10.4

Briefly, growth inhibition measured for O=C(O)CNC(=O)c1ccc2cc(C(=O)N3CC(CCl)c4ccc([N+](=O)[O-])cc43)[nH]c2c1 (stereo unspecified) : -4

Input `c1ccc(C2OCCO2)cc1` . Output growth inhibition: -15.2

====

Below: a set of entries, each annotated with reported growth inhibition.
assay: NCI Yeast Anticancer Drug Screen. Data for the sgs1 mgt1 strain (AID 161);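 note: 0% = growth of cultures given vehicle only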; conditions: S. cerevisiae sgs1 mgt1 strain, at 50.0 µM, stronger effect = higher value
Compounds without any hit were thinned out: in the full panel of roughly 79,000, 15% have a hit.
Give the value, in units of %, as a plain number.

Solved cases (5 shown):
CCCCNC(N)=O = -21.9
Brc1ccc(-c2[nH]c3ccccc3c2N=Nc2ccccc2)cc1 = 6.45
[O-][N+]1(CC[N+]2([O-])CCCCC2)CCCCC1 = 1.7
N#CCCN(CCC#N)c1nc(-c2ccccc2)nc(N(CCC#N)CCC#N)n1 = -1.75
COC(=O)N1c2ccccc2[C@@H](O)[C@@H]1OC = 7.25

// recorded growth inhibition for `COc1cc2oc3cc(OC)c(OC)c(CC=C(C)C)c3c(=O)c2c(O)c1CC=C(C)C` : 0.15

// growth inhibition lookup, molecule = CN(C(=O)C12C3C4C1C1C2C3C41C(N)=O)C(C)(C)C (stereo unspecified) , result: 4.35

Entry CCCCCCCCCCNC(=O)C(OC(C)=O)C(OC(C)=O)C(OC(C)=O)C(COC(C)=O)OC(C)=O (stereo unspecified) , growth inhibition reported as 19.3

====

assay: NCI Yeast Anticancer Drug Screen. Data for the mlh1 rad18 strain (AID 175); conditions: S. cerevisiae mlh1 rad18 strain growth inhibition; at 50.0 µM; stronger effect = higher value
Compounds without any hit were thinned out: in the full panel of roughly 79,000, 15% have a hit.
MEASUREMENT_KIND: growth inhibition (%)
Write it as a number; the unit % goes unstated.

N#C/C(=C\c1ccccn1)c1ccc(Cl)cc1 = 53.7
CCCCCCCCCCCCCCC(O)CO (configuration not stated) = -20.9
O=CC(=O)c1cccc([N+](=O)[O-])c1 = 10.4
C/C(=N/NC(N)=O)c1cn[nH]c1C = 11.8
O=C(O)CCCCCCCCCCOc1ccc(Cl)cc1 = -33.6
CCOc1ccc(NC(=O)Oc2ccc(-c3ccccc3)cc2)cc1 = 48.1
COc1c(NC(=O)c2ccc(C(=O)Nc3cccc([N+](=O)[O-])c3OC)cc2)cccc1[N+](=O)[O-] = -1.3
S=C(/C=C1\SC(=Nc2ccccc2)C(=Nc2ccccc2)N1c1ccccc1)Nc1ccccc1 = 1.35
CCCCCCCC(=O)NS(=O)(=O)c1ccccc1 = 39.8
CC(C)C1CSC2N1C(=O)C2(OCc1ccccc1)C1CC1 (configuration not stated) = 9.1

Lookup result for `CCN(CC)C(=S)N/N=C/c1ccccn1` ; measured growth inhibition: 90.3

molecule `Cc1cc2c(cc1C)C(C)(C)c1c(nc(N)[nH]c1=O)N2C` , growth inhibition observed: 1.7

====

assay: NCI Yeast Anticancer Drug Screen. Data for the mlh1 rad18 strain (AID 175); conditions: S. cerevisiae mlh1 rad18 strain growth inhibition; at 50.0 µM; stronger effect = higher value
About 79,000 compounds went through this panel and 15% of them were active in at least one assay; those are over-represented in the sample as a whole.
MEASUREMENT_KIND: growth inhibition (%)
The figure you give is taken to be in %; do not add the unit.

CC(=O)ON=C(C1CC1)C1CC1 = -3.3
CCCCCCOC(=O)CCBr = 1.4
CC(C)CCCC(C)C1CCC2C3CC=C4CC(C(=O)O)CCC4C3CCC12C (stereo unspecified) = 22.6
NS(=O)(=O)c1ccc(NC(NC(=O)C(C(F)(F)F)C(F)(F)F)(C(F)(F)F)C(F)(F)F)cc1 = -0.8
COC1CCC2(C)C3CCC4C(=CCC5C(C)(C)C(OC(C)=O)CCC45C)CC3(C)CCC2C1(C)C (stereo unspecified) = 0.2

Summary for this compound, CCOC(=O)C(C)NCc1ccccc1 (stereo unspecified) : growth inhibition is -3.25
